tested on: RXF 393 renal; experiment: NCI tumour cell line growth inhibition, 48 h
metric: log10(TGI) (log10 of the value in µM)

compound=CCOC(=O)N1CCN(/[N+]([O-])=N/Oc2ccc([N+](=O)[O-])cc2[N+](=O)[O-])CC1 metric=log10(TGI) result_number=0.77
compound=O=C1C(N2CCN(c3ccccn3)CC2)=C(Cl)C(=O)c2ncccc21 metric=log10(TGI) result_number=0.55
compound=CC[C@@H]1c2c(C#N)ncn2-c2cnc(Nc3ccc(C(=O)NC4CCN(C5CCN(CC6CC6)CC5)CC4)cc3OC)nc2N1C1CCCC1 metric=log10(TGI) result_number=0.26
compound="Cc1ccc([N+](=O)[O-])cc1S(=O)(=O)Nc1ccc(C2=NOC(c3ccco3)C2)cc1 (stereo unspecified)" metric=log10(TGI) result_number=1.37
compound=O=C(c1ccccc1)c1ccccc1-c1ccccc1 metric=log10(TGI) result_number=1.36
compound=Cc1c2ccncc2c(C)c2c1[nH]c1ccc(OC(C)C)cc12 metric=log10(TGI) result_number=0.44
compound="C/C=C(\\C)C(=O)NC1=CC[C@@]2(C)C(=CCC3C2CC[C@@]2(C)C3CC[C@@H]2C(C)N(C)C)C1=O (stereo partly specified)" metric=log10(TGI) result_number=0.66
compound=O=C(NNC(=S)Nc1ccccc1)c1cc(-c2ccccc2)nc2ccccc12 metric=log10(TGI) result_number=1.67
compound="BrC1=CCC23CC=C(Br)[C@H]4CC2(COC3)C[C@@H]1O4 (stereo partly specified)" metric=log10(TGI) result_number=1.97
compound=CCOC(=O)Nc1ccc2c(c1)/C(=N\NC(N)=S)c1ccccc1-2 metric=log10(TGI) result_number=0.66
compound=C[C@H](NC(=O)[C@@H](C)N)[C@H](Oc1ccc2c(cnn2-c2ccc(F)cc2)c1)c1ccc2c(c1)OCCO2 metric=log10(TGI) result_number=1.05

----------
tested on: SF-295 CNS; assay: NCI tumour cell line growth inhibition, 48 h
Each record here notes measured TGI.
metric: TGI

compound=Cc1cccc(/C=C/c2c(C(=O)/C=C/c3ccccc3)c(C)nc3ccccc23)c1 measurement_target="SF-295 CNS" metric=TGI result="3.73 µM"
compound=Cc1ccc(NCC(=O)N2CC(=O)Nc3ccccc32)c(C)c1 measurement_target="SF-295 CNS" metric=TGI result="> 100 µM"
compound="C[C@]12C[C@H](CCCCCCNCCOC(=O)NCCCc3ccc(N(CCCl)CCCl)cc3)C3=C4CCC(=O)C=C4CCC3C1CC[C@@H]2O (some centres undefined)" measurement_target="SF-295 CNS" metric=TGI result="> 100 µM"
compound=CCCCON(OC(=O)c1ccc2ccccc2c1)C(=O)c1ccccc1 measurement_target="SF-295 CNS" metric=TGI result="> 100 µM"
compound="CC(=O)OCCCC(NC(=O)OC(C)(C)C)C(=O)NC(CCCOC(C)=O)C(=O)NC(Cc1ccc([N+](=O)[O-])cc1)C(=O)NCC(=O)OCc1ccccc1 (centres undefined)" measurement_target="SF-295 CNS" metric=TGI result="24.4 µM"
compound="COC(=O)CC1C[C@H](C#N)N(C(=O)c2ccccc2)C[C@@H]1CC[N+](=O)[O-] (some centres undefined)" measurement_target="SF-295 CNS" metric=TGI result="> 100 µM"
compound=Cc1cc(CC(=O)NCCO)n(CCO)c(=O)c1 measurement_target="SF-295 CNS" metric=TGI result="> 100 µM"
compound="CC(C)(C)[Si](C)(C)OCC1OC(n2cnc3c(N)ncnc32)CC1O (centres undefined)" measurement_target="SF-295 CNS" metric=TGI result="> 100 µM"
compound=CN(/N=C/c1cccc2cccnc12)c1ccc([N+](=O)[O-])cc1[N+](=O)[O-] measurement_target="SF-295 CNS" metric=TGI result="33 µM"

----------
tested on: HCT-15 colon; experiment: NCI tumour cell line growth inhibition, 48 h
metric: TGI

structure_smiles=CCOC(=O)c1cc(=O)c2ccnc3c2n1CCS3 result="> 100 µM"
structure_smiles=Cc1c2ccncc2c(C)c2c1[nH]c1ccc(OC(C)C)cc12 result="2.74 µM"
structure_smiles=O=C(CCCCCCNC(=O)c1cnc(N(c2ccccc2)c2ccccc2)nc1)NO result="> 100 µM"

----------
system: T-47D breast; assay: NCI tumour cell line growth inhibition, 48 h
# maps each entry to its TGI
metric: TGI

compound=COc1cccc(N2CCN(CC(=O)N3CCN(c4nnc(-c5ccc(Cl)cc5)c(-c5ccc(Cl)cc5)n4)CC3)CC2)c1 result="47.6 µM"
compound=COc1ccc(OC)c(-c2nc3n(c2/C=C2/C(=O)Nc4ccccc42)CCS3)c1 result="> 100 µM"
compound=CCOC(=O)/C(C=Nc1ccc(-c2nc3ccccc3[nH]2)cc1)=C(/C)O result="35.4 µM"
compound="c1cncc(C2(c3cc4ccccc4[nH]3)COCO2)c1 (configuration not stated)" result="> 100 µM"
compound="CCCCCC(C/C=N/N(C)C)C(O)(C(F)(F)F)C(F)(F)F (configuration not stated)" result="> 100 µM"
compound=N=C1C(c2nc3ccccc3s2)=C(O)CN1c1ccc(F)c(Cl)c1 result="> 100 µM"
compound="CC(C)(C)[Si](C)(C)OCC1OC(n2cnc3c(N)ncnc32)CC1O (configuration not stated)" result="> 100 µM"
compound="N=C(N)C1CN(CCCCCCCCCCN2CC(C(=N)N)C(=O)NC2=O)C(=O)NC1=O (configuration not stated)" result="> 10 µM"
compound=CCOC(=O)c1c(C)nc2c(c1N)CC(=O)N2Cc1ccc(OC)cc1 result="> 100 µM"
compound=COc1cc(C=O)cc(/C=N/n2c3ccccc3c3ccccc32)c1O result="> 100 µM"
compound=COc1ccc(/C=C/C(=O)c2cc(OC)c(OC)c(OC)c2)cc1OCc1cn(Cc2ccc(F)cc2)nn1 result="> 100 µM"
compound=C[C@H](NC(=O)[C@@H](C)N)[C@H](Oc1ccc2c(cnn2-c2ccc(F)cc2)c1)c1ccc2c(c1)OCCO2 result="5.41 µM"
compound=CCCc1cc(=O)oc2c3c(c4c(c12)OC(C)(C)CC4)O[C@@H](C)[C@H](C)[C@H]3O result="23.2 µM"
compound=CCOC(=O)c1nnsc1NC(=O)Nc1ccc(Cc2ccc(NC(=O)Nc3snnc3C(=O)OCC)cc2)cc1 result="> 100 µM"
compound="OC1c2ccccc2CC12Cc1ccccc1C2 (configuration not stated)" result="> 100 µM"
compound=Cc1cc2c(cc1C)OC(=O)CC2 result="> 100 µM"
compound="COC(=O)[C@H](Cc1ccccc1)NP(=O)(OCCC#N)OCC1OC(n2cc(C)c(=O)[nH]c2=O)CC1N=[N+]=[N-] (some centres not stated)" result="> 100 µM"

----------
Measured TGI accompanies every entry in the list below.
system: SF-295 CNS; experiment: NCI tumour cell line growth inhibition, 48 h
metric: TGI

compound=O=c1c2ccccc2nc(-c2cc3c(cc2Cl)Sc2nccn2S3(=O)=O)n1-c1ccccc1 metric=TGI result="52.9 µM"
compound="BrC1=CCC23CC=C(Br)[C@H]4CC2(COC3)C[C@@H]1O4 (some centres not stated)" metric=TGI result="> 100 µM"
compound=CN(Cc1ccccc1)C(=NC#N)N(Cc1ccccc1)Cc1ccccc1 metric=TGI result="47.4 µM"
compound=Cc1ccc(S(=O)(=O)N2CCC(=O)c3cc(Br)ccc32)cc1 metric=TGI result="55.7 µM"
compound=O=C1C(Cl)=C(Nc2cccc(Cl)c2)C(=O)N1Cc1ccc(Cl)cc1 metric=TGI result="15.6 µM"
compound="CN1CCc2c3n(c4cc(Br)ccc24)[C@H](O)CCCC31 (some centres not stated)" metric=TGI result="3.53 µM"
compound="COC(=O)[C@H](Cc1ccccc1)NP(=O)(OCCC#N)OCC1OC(n2cc(C)c(=O)[nH]c2=O)CC1N=[N+]=[N-] (some centres not stated)" metric=TGI result="> 100 µM"
compound=O=C(Oc1cccc(F)c1OC(=O)c1cccc(O)c1)c1cccc(O)c1 metric=TGI result="> 100 µM"
compound=C=C1C(=O)O[C@H]2[C@H]1CC/C(CNC(=O)/C=C/c1cc(OC)c(OC)c(OC)c1)=C\CC[C@@]1(C)O[C@@H]21 metric=TGI result="18.2 µM"
compound=N.N.N.N.N.NC(=O)c1nn[n-]n1.[Cl-].[Co+3] metric=TGI result="> 100 µM"
compound=CN1CCC2(CC1)ONC1=NCCN12 metric=TGI result="> 100 µM"
compound=Cc1nnn[n-]1.N.N.N.N.N.[Cl-].[Co+3] metric=TGI result="> 100 µM"
compound="CC(CC[C@@H](O)C(C)(C)O)C1[C@@H](O)CC2(C)C3CC(O)C4C(C)(C)[C@@H](OC5OC(CO)C(O)C(O)C5O)CC[C@@]45C[C@@]35CC[C@]12C (some centres not stated)" metric=TGI result="> 10 µM"
compound=O=C1CSC(=S)N1 metric=TGI result="> 100 µM"
compound=Cc1ccc(Cc2n[nH]c(=O)n2Nc2ccccc2)cc1 metric=TGI result="> 100 µM"
compound=O=C(c1ccccc1)c1ccccc1-c1ccccc1 metric=TGI result="29 µM"
compound="O=NN1C(c2ccccc2)CC(=NO)CC1c1ccccc1 (configuration not stated)" metric=TGI result="> 100 µM"
compound=CC1=NN(c2cccc(Cl)c2)C(=N/c2nc3ccccc3s2)/C1=C\c1ccc(Cl)cc1 metric=TGI result="61.6 µM"
compound="OC1c2ccccc2CC12Cc1ccccc1C2 (configuration not stated)" metric=TGI result="> 100 µM"
compound=CNC(=O)Nc1nc2ccc([N+](=O)[O-])cc2[nH]1 metric=TGI result="> 100 µM"
compound=Cc1ccc2nc3c(=O)[nH]c(=O)nc-3n(C)c2c1C metric=TGI result="> 100 µM"
compound=CN1CCN(C(=S)N(C(=O)c2ccc(Cl)cc2)c2ccccc2)CC1 metric=TGI result="> 100 µM"
